Origin of the recorded values: ChEMBL document CHEMBL1201862

assayed-target: Streptokinase A (Streptococcus pyogenes serotype M1)
Sequence (P10520 whole entry): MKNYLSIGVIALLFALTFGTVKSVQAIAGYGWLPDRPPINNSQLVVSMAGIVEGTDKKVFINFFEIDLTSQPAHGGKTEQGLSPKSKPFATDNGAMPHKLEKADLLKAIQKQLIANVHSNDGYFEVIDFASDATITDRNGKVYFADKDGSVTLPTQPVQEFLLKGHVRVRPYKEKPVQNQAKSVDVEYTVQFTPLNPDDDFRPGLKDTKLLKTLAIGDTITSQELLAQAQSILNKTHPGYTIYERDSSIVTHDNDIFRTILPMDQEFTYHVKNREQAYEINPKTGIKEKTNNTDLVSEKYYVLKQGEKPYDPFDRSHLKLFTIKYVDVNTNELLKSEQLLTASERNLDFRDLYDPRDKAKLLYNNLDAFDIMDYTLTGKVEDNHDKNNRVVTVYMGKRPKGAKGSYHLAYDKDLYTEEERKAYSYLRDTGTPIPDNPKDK
assay-comment: viability-normalized secreted streptokinase activity reduction – plasminogen activation absorbance, OD405, dose response (AID 1914);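 also: secreted streptokinase activity via plasminogen activation per viability signal from cell pellet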
Type: functional, Streptococcus pyogenes M1 GAS
The source made the active and inactive calls. Rule as the data show it: actives have a measured EC50 and inactives only a lower limit.
Record form. Attribute: EC50. Fill in for each entry.

Value lookup for EC50; key = "CN1C(=O)/C(=N\CCc2ccccc2)c2c3ccccc3c(O)c3cccc1c23"
> 150 µM (not active)

So what does the record say about EC50 for "Cc1ccccc1N1CCN(C(=O)CCN2C(=O)c3ccccc3C2=O)CC1" ?
> 150 µM (not active)

# input compound: "NC(=O)N=Nc1c2nc3ccccc3[nH]c-2c2ccccc12" ; wanted: its EC50
46.2 µM (active)

What value of measured EC50 is listed for "Cc1cccc(OCC(=O)Nc2ccncc2)c1" ?
> 150 µM (not active)

Could you share which EC50 value was measured for "O=C(COc1ccc(F)cc1)Nc1nc(-c2ccccn2)cs1" ?
> 150 µM (not active)

Would you kindly share the measured EC50 for "C/C(=N/NS(=O)(=O)c1ccc(Cl)cc1)c1cccc(NC(=O)c2ccc(Cl)cc2Cl)c1" ?
23.4 µM (active)

Look at this compound and give its reported EC50. "CC(C)Cn1c(=O)c(C(=O)Nc2ccccc2S(N)(=O)=O)c(O)c2ccccc21"
> 150 µM (not active)

For the compound "O=C(Nc1nnc(-c2ccc(Br)cc2)o1)c1cccc(N2C(=O)CCC2=O)c1" , what EC50 is on record?
> 150 µM (not active)

GET /values?readout=EC50&item= "Cc1c(C(=O)Nc2nonc2-c2ccc(F)cc2)oc2ccc(F)cc12"
27.7 µM (active)

What value of EC50 has been recorded for this entry: "CCN1/C(=C/c2ccc3ccccc3[n+]2CC)C=Cc2ccccc21"
> 150 µM (not active)

# lookup: EC50 of "CN(Cc1ccc(OC(F)F)cc1)Cc1nc2c(Br)cc(Br)cc2c(=O)[nH]1"
29.4 µM (active)

What value of EC50 has been reported for the following compound? "COC(=O)[C@H]1[C@H](CCc2ccccc2)NC(=O)N(Cc2ccccc2)[C@@H]1C"
> 150 µM (not active)

Reported EC50 for "CC(C)(C)[C@@H]1CCC(=O)N(CC[C@H](Sc2ccccc2)c2ccccc2)CC1" : what is it?
> 150 µM (not active)

# input compound: "Oc1c(CN2CCN(c3ccc(F)cc3)CC2)cc(Cl)c2cccnc12" ; wanted: its EC50
> 150 µM (not active)

Requested read-out: EC50. Entry: "N=C1/C(=C\c2ccc(-c3cccc(C(=O)O)c3)o2)C(=O)N=C2SC=C(c3ccccc3)N12"
> 150 µM (not active)

# query: EC50 of entry O=C(NCc1ccc2c(c1)OCO2)C(=O)NCC1OCCN1S(=O)(=O)c1ccc(Br)cc1 (stereo unspecified)
> 150 µM (inconclusive)

Entry "Nc1nc(NCc2ccco2)nc(N2CCCCCC2)c1[N+](=O)[O-]" has what EC50?
> 150 µM (not active)

Please report the recorded EC50 for "COc1ccc2c(c1)c(CC(=O)Nc1cccc(S(N)(=O)=O)c1)c(C)n2C(=O)c1ccc(Cl)cc1" .
> 150 µM (not active)

What value of EC50 has been recorded for this entry: "Cc1cc(C)n(-c2nc(SCC(=O)O)c3c4c(sc3n2)CCCC4)n1"
> 150 µM (not active)

Suppose we examine the compound "Cc1cc(C)n(-c2nc(Nc3ccccc3C)nc(-n3nc(C)cc3C)n2)n1" ; what EC50 value has been reported?
> 150 µM (not active)

Which EC50 is listed for "COc1ccc(/C=C/C(=O)NC(=S)NNC(=O)c2ccco2)cc1OC" ?
> 150 µM (not active)

Any idea what its EC50 is? The compound is "Nc1[nH]nc(C2CC2)c1N=Nc1ccc(Cl)c(Cl)c1"
17 µM (active)

Requested field: EC50. Item: "O=C(Nc1ccc(OCC(F)(F)C(F)F)c(C(F)(F)F)c1)c1ccc(Cl)cc1"
1.77 µM (active)

Could you tell me which EC50 is on file for COC(=O)C1(C(C[N+](=O)[O-])c2ccc(C)cc2)C(=O)NCC1c1ccco1 (stereo unspecified) ?
> 150 µM (inconclusive)

Name the reported EC50 value associated with the compound "COc1cc(C(=O)NC(=S)N(CCc2ccccc2)CCc2ccccc2)cc(OC)c1OC"
> 150 µM (not active)

Entry "O=C(CN1C(=O)COc2ccc(S(=O)(=O)N3CCCCC3)cc21)NCc1ccc(F)cc1" has what EC50?
> 150 µM (not active)

Give its EC50 value. Item: COc1cccc(C(=O)N2C(C(=O)O)CSC2c2ccccc2Cl)c1 (stereo unspecified)
> 150 µM (not active)

Given the entry c1ccc(CSC2=NNC(c3ccccn3)S2)cc1 (stereo unspecified) , report its measured EC50.
> 150 µM (not active)

Sample "COc1cccc(/C=N/n2c(N)nc3ccccc32)c1OC" — what was its EC50?
> 150 µM (not active)

Find the recorded EC50 belonging to "CC/C(=N\NC(=S)Nc1cccc(C)c1)c1ccccc1" and report it.
21.3 µM (active)

Consider the compound shown here: "CC(C)(O)c1[nH]c2cc(F)ccc2c1C(C)(C)O" What is its recorded EC50?
> 150 µM (not active)
